Listed compounds paired with reported viability, T/C
Assay: Anticancer human tumor 997537-175-T-J1-PDC patient-derived colon adenocarcinoma cell line growth inhibition [POLQ];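 also: luminescence signal used as a surrogate for viable cells; spheroids exposed to drugs for seven days before readout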
Settings: 997537-175-T-J1-PDC complex spheroid viability, combination with POLQ inhibitors; second compound 3.16 µM; first compound 10 µM; active compounds read low

Fill in: viability, T/C of CCc1cc2c(N3CCc4c(cc(Cn5ccnc5)cc4-c4cn(C)nc4C(F)(F)F)C3=O)cc(C)nc2c(OC)n1 + COC1C(OC(N)=O)C(O)C(Oc2ccc3c(O)c(NC(=O)c4ccc(O)c(CC=C(C)C)c4)c(=O)oc3c2C)OC1(C)C is ___ 65.6%

C=CC(=O)N1CCN(c2nc(=O)n(-c3c(C)ccnc3C(C)C)c3nc(-c4c(O)cccc4F)c(F)cc23)C(C)C1 (centres undefined) + COC1C(OC(N)=O)C(O)C(Oc2ccc3c(O)c(NC(=O)c4ccc(O)c(CC=C(C)C)c4)c(=O)oc3c2C)OC1(C)C , same question. 95.7%

Now consider COc1cccc2c1C(=O)c1c(O)c3c(c(O)c1C2=O)CC(O)(C(=O)CO)CC3OC1CC(N)C(O)C(C)O1 (centres undefined) + Cc1cccc(N(C)C(=O)C2C(O)CCN2c2nc(C)cc(C(F)(F)F)c2C#N)c1 and answer again. 10.2%

Others:
Look up viability, T/C for this compound: COc1cccc2c1C(=O)c1c(O)c3c(c(O)c1C2=O)CC(O)(C(=O)CO)CC3OC1CC(N)C(O)C(C)O1 (centres undefined) + COC1C(OC(N)=O)C(O)C(Oc2ccc3c(O)c(NC(=O)c4ccc(O)c(CC=C(C)C)c4)c(=O)oc3c2C)OC1(C)C 13.1%
